# system_tested: 5-HT1A (Rattus norvegicus, UniProt P19327)
# Sequence (P19327 whole entry): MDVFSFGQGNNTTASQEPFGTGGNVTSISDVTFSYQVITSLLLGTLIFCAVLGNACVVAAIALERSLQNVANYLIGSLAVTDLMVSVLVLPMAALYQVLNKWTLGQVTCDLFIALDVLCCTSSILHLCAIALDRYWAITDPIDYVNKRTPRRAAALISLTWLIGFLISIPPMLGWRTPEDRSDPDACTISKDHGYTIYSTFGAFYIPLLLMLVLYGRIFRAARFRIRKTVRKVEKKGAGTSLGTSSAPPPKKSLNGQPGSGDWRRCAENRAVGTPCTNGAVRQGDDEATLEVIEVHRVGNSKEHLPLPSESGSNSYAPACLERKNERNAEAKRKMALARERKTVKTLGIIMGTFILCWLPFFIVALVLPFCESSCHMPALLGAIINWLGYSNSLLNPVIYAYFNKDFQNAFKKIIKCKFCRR
parameter: pIC50
When answering, recall that pIC50 equals minus log10 of the concentration in mol/L, and write that number alone.

Which pIC50 is reported for this molecule? CNS(=O)(=O)Cc1ccc2[nH]cc(CCN(C)C)c2c1 [sumatriptan, reference compound]
6.30

Origin of measurements: patent US5233050A
